B1: SPOPL (parent)
chain: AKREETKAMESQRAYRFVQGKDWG

Variants of: B1
PROTOCOL: protein stability index of a GFP-peptide fusion (GPS, HEK-293T) (PSI 1-6); higher = more stable;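 also: lentivirally expressed fusions sorted by FACS into six bins by GFP to DsRed ratio, PSI derived from sequencing read proportions per bin multiplied by bin number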
RUN_CONDITIONS: c terminus: a fixed tail appended
For each record, write down the corresponding protein stability index.
Just the number, please, no unit attached.

Please fill in: protein stability index reported for Q19V = 2.37

# protein stability index of R3K = 3.38

protein stability index reported for this variant R13K : 3.67

The recorded protein stability index for entry R3G equals 3

Measured protein stability index of K21N : 3.11

In plain terms, S11K has a documented protein stability index of 3.15

// field: protein stability index; key: R3Y ; value = 2.93

Just so you know, measured protein stability index for G20C came out at 2.97

protein stability index for A1L is 2.55

protein stability index for Y15K is 4.61

Reported protein stability index of S11E : 3.77

// S11F : protein stability index value = 2.14

The variant Q19M showed protein stability index equal to 2.25

Recorded result, K2R , protein stability index: 2.92

Looking up G24Y , I see its protein stability index listed as 2.41

Documented protein stability index of E10G : 2.69

Entry A8N — recorded protein stability index = 3.03

For this variant ( Q12V ), measured protein stability index is 2.06

Entry K21H — recorded protein stability index = 2.32

variant E4V , protein stability index observed: 2.42

Notebook: F17C , protein stability index read as 4.24

protein stability index recorded for this variant, E4D , is 3.26

Data provenance is the supplement of paper PMC10567573.
